B1: TPR t1 (parent)
chain: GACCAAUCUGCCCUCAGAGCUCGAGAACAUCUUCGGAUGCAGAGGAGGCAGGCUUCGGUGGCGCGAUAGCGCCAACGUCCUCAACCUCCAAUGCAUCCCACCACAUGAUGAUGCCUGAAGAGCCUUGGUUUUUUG

Variants of: B1
Assay: polymerase ribozyme fitness, log enrichment relative to wild type (log ratio); higher = more active; in vitro selection for triplet polymerase activity
Decide by polymerase ribozyme fitness (log ratio): equal to or exceeding -2 means Met, less means Not met.

sequence	class assignment
GACCAAUCUGCCCUCAGAGCUCGAGAACAUCUUCGGAUGCAGAGGAGGCAGGAUUCGGUGGCGCGAUAGCGCCUACGUCCUCAACCUCCAAUGCAUCCCACCACAUGAUGAUGCCUGAAGAGCCAUGGUUUUUUG [C53A A74U U125A]	Met
GACCAAUCUGCCCUCAGAGCUCGAGAACAUCUUCGGAUGCAGAGGAGGCAGGCUUCGGUGGCGCGAUAGCGCCAACGUCCUCAACCUCCAAUGCAUCCCACCACAUGAUGACGCCUGUAGAGCCUUGGUUUUUUG [U112C A118U]	Met
GACCAAUCUGCCCUCAGAGCUCGAGAACAUCUUCGGAUGCAGAGGAGGCAGGCUUCGGUGGCGCGAUAGCGUCAAUGUCCUCAACCUCCAAUGCAUCCCACCACAUGAUGAUGCCUGAAGCGCCUUGGUUUUUUG [C72U C76U A121C]	Met
GACCAAUCUGCCCUCAGAGCUCGAGAUCAUCUUCGGAUGCAGAGGAGGCAGGCUUCGGUGGGGCGAUAGCGCCAACGUCCUCAACCUCCAAUGCAUCCCACCACAUGAUGAUGCCUGAAGAGCCUUGGUUUUUUG [A27U C62G]	Not met
GACCAAUCUGCCUUCAGAGCUCGAGAACAUCUUCGGAUGCAGAGGAGGCAGGAUUCGGUGGCGCGAUAGCGACAACGUCCUCAACCUCCAAUGCAUCCCACCUCAUGAUGAUGCCUGAAGAGCCUUUGUUUUUUG [C13U C53A C72A A103U G127U]	Not met
GACCAAUCUGCCCUCAGAGCUCGGGAACAUCUUCGGAUGCAGAGGAGGCAGGCUUCGGUGGCGCGAUAGCGCCAACGUCCUCAACCUCCAAUGCAUCCCACCACAUGAUGGUGCCUGAAGAUCCUUGGUUUUUUG [A24G A111G G122U]	Not met
GACCAAUCUGCCCUCAGAGCUCGAGAACAUCUUCGGAUGCAGAGUAGGCAGGCUUCGGUGGCGCGAUAGCGGCAACGUCCUCAACCUCCAAUACAUCCCACCACAUGAUGAUGCCUGAAGAGCCUUGGUUUUUUG [G45U C72G G93A]	Not met
GACCAAACUGCCCUCAGAGCUCGAGAACAUCUUCGGAUGCAGAGGAGGCAGGCUUCGGUGGCGCGAUAGCGCCAACGUCCUCAACCUCCAAUGCAUCCCACCCCAUGAUGAUGCCUGAAGAGCCUUGGUUUUUUG [U7A A103C]	Not met
GACCAAUCUGCCCUCAGAGCUCGAGAACAUCUUCGGAUGCAGCGGAGGCAGGCUUCGGUGGCGCGAUAGCGCCAACAUCCUCAACCUCCAAUGCAUCCCACCACAUGAUGAUGCCUGAAGAGCCUUCGUUUUUUG [A43C G77A G127C]	Not met
GACCAAUCUGCCCUCAGAGCUCGAGAACAUCUUCGGAUGCAGAGGAGGCAGGCUUCGGUGUCGCGAUAGCGCCAACGUCCUCAACCUCCAAUGCAUCCCACCAUAUGCUGAUGCCUGAAGUGCCUUGGUUUUUUG [G61U C104U A108C A121U]	Not met
GACCAAUCUGCCCUCAGAGCUCGAGAACAUCUUCGGAUGCAGAGGAGGCAGGCUUCGGUGGCGCGAUAGCGCCAACGUCCUCAACCGCCAAUGCAUCCCACCACAUGAUGAUGCCUAAAGAGCCUUGGUUUUUUG [U87G G117A]	Met
GACCAAUCUGCCCUCAGAGCUCGAGAACAUCUUCGGAUGCAGAGGAGGCAGGCUUCGGUGGCUCGAUAGCGCCAACGUCCUCAACCUCCAAUACAUCCCACCACAUGAUGAUGCCUGAAGAGCAUUGGUUUUUUG [G63U G93A C124A]	Met
GACCAAUCUGCCCUCAGAGCUCGAGAACAUCUUCGGAUGCAGAGGAGGCAGGCUUCGGUGGCGCGAUAGCGCCAACGUCAUUUACCUCCAAUGCAUCCCAGCACAUGAUGAUGCCUGAAGAGCCUUGGUUUUUUG [C80A C82U A83U C101G]	Not met
GACCAUUCUGCCCUCUGAGCUCGAGAACAUCUUCGGAUGCAGAGGCGGCAGGCUUGGGUGGCGCGAUAGCGCCAACGUCCUCAACCUCCAAUGCAUCCCACCACAUGAUGAUGCCUGAAGAGCCUUGGUUUUUUG [A6U A16U A46C C56G]	Not met
GACCAAUCUGCCCUCAGAGCUCGAGAACAUCUUCGGAUGCAGAGGAGGCAGGCAUUGGUGGCGCGAUAGCGCCAACGUCCUCAACCUCCAAUACAUCCCACCACAUGAUGAUGCCUGAAGAGCCUUGGUUUUUUG [U54A C56U G93A]	Met
GACCAAUCUGCCUUCAGAGCUCGAGAACAUCUUCGGAUGCAGAGGAGGCAGGCUUCGGUGGCGCGAUACCGCCAACGUCCUCAACCUCCAAUGCAUCCCACCACAUGAUGAUGCCCGAACAGCCUUGGUUUUUUG [C13U G69C U116C G120C]	Met
GACCAAUGUGCCCUCAGAGCUCGAGAACAUCUUCGGAUGCAGAGGAGGCAGGCUUCGGUGGUGCGAUAGCGCCAACGUCCUCAACCUCCAAUGCAUCCUACCACAUGAUGAUGCCUGAAGAGCCUUGGUUUUUUG [C8G C62U C99U]	Not met
GACCACUCGGCCCUCAGAGCUCGAGAACAUCUUCGGAUGCAGAGGAGGCAGGCUUCGGUGGCGCGAUAUCGCCAACGUCCUCGACCUCCACUGCAUCCCACCACAUGAUGAUGCCUUAAGAGCCUUGGUUUUUUA [A6C U9G G69U A83G A91C G117U G135A]	Met
GACCAAUCUGCCCUCAGAGCUCGAGAAUAUCUUCGGAUGCCGAGGAGGCAGGGUUCGGUGGCGCGAUAGCGCCAACGUCCUCAACCUCCAAUGCAUCCCACCACAUGAUGAUGCCUGAAGAGCCUUGGUUUUUUG [C28U A41C C53G]	Not met
GACCAAUCAGCCCUCAGAGCUCGAGAACAUCUUCGGAUCCAGAGGAGGCAGGCUUCGGUGGCGCGAUAGCGCCAACGUCCUCAACCUCCAAUGUAUCCCACCACAUGAUGAUGCCUGAAGAGCCUUGGUUUUUUG [U9A G39C C94U]	Met
GACCAAUCUGCCCUCAGAGCUCGAGAACAUCUUCGGUUGCAGAGGAGGCAGGCUUCGGUGGCGCGAUAGCGCCAACGUCCUCAACCUCCAAUGCAUCCCACCACAUGAUCAUGCCUGAAGUGCCUUGGUUUUUUG [A37U G110C A121U]	Not met
GACCAAUCUGCCCUCAGAGCUCGAGAACAUCUUCAGAUGCAGAGGAGCCAGGCUUAGGUGGCGCGAUAGCGCCAACGUCCUCAACCUCCAAUGCAUCCCACCACAUGAUGAUGCCUGAAGAGGCUUGGUUUUUUG [G35A G48C C56A C123G]	Not met
GACCAAUCUGCCCUCAGAGCUCGAGAACAUCUUCGGAUGCAGAGGAGGCAGGCCUUGGUGGCGCGAUAGCGCCAACGUCCUCAACCUCCAAUGCAUCCCACCACAUGAUGAUGCCUGAAGAGCCUUGGUUUUGUG [U54C C56U U133G]	Met
GACCAAUCUGCCCUCAGAGCUCGAGAACAUCUUCGGAUGUAGAGGAGGCAGGCUUCGGUGGCGCGAUAGCGCCAACGUCCUCAACCUCCACUGCAUUCCACCACAUGAUGAUGCUUGAAGAGCCUUGGUUUUUUG [C40U A91C C97U C115U]	Not met
GACCAAUCUGCCCUCAGAGCUCGAGAACAUCUUCGGAUGGAGAGGAGGCUGGCUUCGGUGGCGCGAUAGCGCCAACGUCCUCAACCUCCAAUGCAUCCCACCACAUGAUGAUGCCUGAAGAGCCUUGGUUUUUUG [C40G A50U]	Met
GACCAAUCUGCCCUUAGAGCUCGAGAACAUCUUCGGAUGCAGAGGAGGCAGGCUUCGGUGGCUCGAUAGCGCCAACGUCCUCAACCUCCAAUGCAUCCCACCACAUGAUGAUGCCUGAAGAGCCUUGGUUUUUUG [C15U G63U]	Not met
GACCAAUCUGCCCUCAGAGCUCGAGGACAUCUUCGGAUGCAGAGGAGAGAGGCUUCGGUGGCGCGAUAGCGCCAACGUCCUCAACCUCCAAUGCAUCCCACCACAUGAUGAUGCCUGAAGUGCCUUGGUUUUUUG [A26G G48A C49G A121U]	Met
GACCAAUCUGCCCUCAGAGCUCGAGAACAUCUUCGGAUGCAGAGGAGGCAGGCUUCGCUGGCGCGAUAGCGCCAACGUCCUCAACCUCCAAUGCAUCCCACCACAUGAGGAUGCCUAAAGAGCCUUGGUUUUUUG [G58C U109G G117A]	Not met
GACCAAUCUGCCCUCAGAGCUCGAGAACAUCUUCGGAUGCAGAGGAGGCAGGCUUCUGUGGCGCGAUAGCGCCAACGUCCUCAACCUCCAAUGCAUCCCACCAAACGAUGAUGCCUGAAGAGCCAUGGUUCUUUG [G57U C104A U106C U125A U131C]	Met
GACCAAUCUGCCCUCAGAGCUCGAGAACAUCUUCGGAUGCAGAGGAGGCAGGCUUCGGUGGCGCGAUAGCGCCAACGUCCUCAACCUCCAAUGCAUCCCAGCACAUGAUUAUGCCUGAAGAGCCUUGGUUUUUUG [C101G G110U]	Not met
GACCAAUCUGCCCUCAGAGCUCGAGAACAUCUUCGUAUGCAGAGGAGGCAGGCUUCGGUGGCGCGAUAGGGCCAACGUCCUCAACCUCCAAUGCAUCCCAACACAUGAUGAUGCCUGAAAAGCCUUGGUUUUUUG [G36U C70G C101A G120A]	Not met
GACCAAUCUGCACUGAGAGCUCGAGAACAUCUUCGGAUGCAGAGGAGGCAGGCUUCGGUGGCGCGAUAGCGCCAACGUCCUCAACCUCCAAUGCAUCCCAUCACAUGAUGAUGCCUGAAGAGCCUUGGUUUUUUG [C12A C15G C101U]	Not met
GACCAAUCUGCCCUCAGAGCUCGAGAACAUCUUCGGAUGCAGAGGAGACAGGCUUCGGUGGCGCGAUAGCGCCAACGUCCUCAACCUCCAAUGCAUCCCACCACAUGAUGAUGCCUGAAGAGCCUUGGUUUUGUG [G48A U133G]	Met
GACCAAUAUGCUGUCAGAGCUCGAGAACAUCUUCGGAUGCAGAGGAGGCAGGCUUCGGUGGCGCGAUAACGCCAACGUCCUCAACCUCCAAUGCAUCUCACCACAUGAUGAUGCCUGAAGAGCCUUGGUUUUUUG [C8A C12U C13G G69A C98U]	Not met
GACCAAUCUACCCUCAGAGCUCGAGAACAUCUUCGGAUGCAGAGUAGGCAGGCUUCGGUGGCGCGAUAGCGCCAACGUCCUCAACCUCCAAUGCAUCCCACCACAUGAUGAUACCUGAAGAGCCUUGGUUUUUUG [G10A G45U G113A]	Met
GACCAAUUUGCCCUCAGAGCUCGAGAACAUCUUCGGAUGCAGAGGAGGCAGGCUUCGGUGACGCGAUAGCGCCAACGUCCUCACCCUCCAAUGCAUCCCACCACAUGAUGAUGCCUGAAGAGCCUUGGUUUUUUG [C8U G61A A84C]	Met
GACCAAGCUGCCUUCAGAGCUCGAGAACAUCUUCGGAUGCAGAGGAGGCAGGCUUCGGUGGCGCGAUAGCGCCAACGUCCUCAUCCUCCAAUGCAACCCACCACAUGAUGAUGCCUGAAGCGCCUUGGUUUUUUG [U7G C13U A84U U96A A121C]	Met
GACCAAUCUGCCCUCAGAGCUCGAGACCAUCUUCGGAUGCAGAGGAGGCAGGCUUCGGUGGUGCGAUAGCGCCAACGUCCUCAACCUCCAAUGUAUCCCACCACAUGAUGAUGCCUGAAGAGCCUUGGUUUUUUG [A27C C62U C94U]	Not met
GACCACUCUGCACUCAGAGCUCGAGAACAUCUUCGGAUGCAGAGGAGGCAGGCUUCGGUGGCGCGAUAGCGCCAACGUCCUCAACCUCCAAUGCAUCCCACCACAUGAUGAUGCCUGAAGAGCCUUGGUUUUUUG [A6C C12A]	Met
GACCAAUCUGCCCUCAGAGCUCGAGAAGAUCUUCGGAUGCAGAGGAGGCAGGCUUCGGUGGCGCGAUAGCGCCAACGUCCUCAACCUCCAAUGCAUCCCACCACAUGAUGAUGCCUGAAGAGUCUUGGUUUUUUG [C28G C123U]	Met
GACCAAUCUGCCCUCAGAGCUCGAGAACAUCUUCGGAUGCAGAGGAGGCAGGCUUCGAUGGCGCGAUAGCGCCAACGUACUCAACCUCCAAUGCAUCCCACCACAUGAUGAUGCCUGAAGAGCCUUGGUUUUUUG [G58A C79A]	Met
GACCAAUCUGCCCUCAGAGCUCGAGAACAUCUUCGGAUGCAGAGGAGGCAGGCUUCGGUGGCGCGAUAGCACCAACGUCCGCAACCUCCAAUGCAUCCCACCACAUGAUGAUACCUGAAGAGUCUUGGUUUUUUG [G71A U81G G113A C123U]	Not met
GACCAAACUGCCCUCAGAGCUCGAGAACAUCUUCGGAUGUAGAGGAGUCAGGGUUCGGUGGCGCGAUAGCGCCAACGUCCUCAAACUCCAAUGCAUCCCACCACAUGAUGAUGCCUGAUGAGCCUUGGUUUUUUG [U7A C40U G48U C53G C85A A119U]	Met
GACCAAUCUGCCCUCAGAGCUCGAGAACAUCUUCGGAUGCAGAGGAGGCAGGCUUCGGUGGCGCGAUAGCGCCAACGUACUCAACCUCCAAUGCAUCCCACCACAUGAUGAUGCCUGAAGAGCCUUGGUUCUUUG [C79A U131C]	Met
GACCAAUCUGCCCUCAGAGCUAGAGAACAUCUUCGGAUGCAGAGGAGGUAGGCUUAGGUGGCGCGAUAGCGCCAACGCCCUCAACCUCCAAUGCAUCCCACCACAUGAUGAUGCCUUAAGAGCCUUGGUUUUUUG [C22A C49U C56A U78C G117U]	Not met
